target: hKOPr (Homo sapiens); assay: Inhibition of forskolin-induced cAMP accumulation (HitHunter) in CHO cells expressing hKOPr; type: cell-based; parameters: host or cells: CHO; conditions: HitHunter, CHO-hKOPr
Sequence (P41145 whole entry): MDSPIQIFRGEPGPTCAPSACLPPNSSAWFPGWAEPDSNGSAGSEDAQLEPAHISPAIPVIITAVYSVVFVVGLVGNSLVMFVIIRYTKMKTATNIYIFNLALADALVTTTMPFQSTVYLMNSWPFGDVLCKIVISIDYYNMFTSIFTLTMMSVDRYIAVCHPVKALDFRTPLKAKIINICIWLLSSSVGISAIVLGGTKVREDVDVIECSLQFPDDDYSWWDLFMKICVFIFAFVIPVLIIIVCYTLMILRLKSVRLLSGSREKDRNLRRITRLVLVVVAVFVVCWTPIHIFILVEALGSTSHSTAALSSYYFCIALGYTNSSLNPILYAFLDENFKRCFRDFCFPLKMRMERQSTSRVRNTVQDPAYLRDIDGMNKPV
MEASURE: EC50 (nM)

>>> numeric_value("C#Cc1occc1[C@@H]1C[C@]2(C)[C@H]3C(=O)[C@@H](OC(C)=O)C[C@@H](C(=O)OC)[C@]3(C)CC[C@H]2C(=O)O1")
0.011

* * *

target: UniProt:P41145; experiment: β-arrestin2 recruitment (PathHunter) in U2OS cells expressing β-arrestin2 and hKOPr; format: cell-based; design: host or cells: U2OS
Sequence (P41145 whole entry): as above
Sequence (P32121 whole entry partner): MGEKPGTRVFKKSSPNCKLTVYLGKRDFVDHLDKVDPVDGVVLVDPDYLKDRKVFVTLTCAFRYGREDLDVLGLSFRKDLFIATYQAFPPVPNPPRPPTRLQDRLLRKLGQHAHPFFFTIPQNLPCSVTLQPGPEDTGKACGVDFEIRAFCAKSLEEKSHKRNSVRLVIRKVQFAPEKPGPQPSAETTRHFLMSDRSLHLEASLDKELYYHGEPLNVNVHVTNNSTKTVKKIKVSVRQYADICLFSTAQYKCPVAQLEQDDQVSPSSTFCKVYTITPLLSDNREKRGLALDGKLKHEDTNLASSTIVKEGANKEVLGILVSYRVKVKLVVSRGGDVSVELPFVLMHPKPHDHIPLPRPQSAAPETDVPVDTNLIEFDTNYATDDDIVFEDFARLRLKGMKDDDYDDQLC
pEC50: −log10 of the molar value.
MEASURE: pEC50

>>> numeric_value("C#Cc1occc1[C@@H]1C[C@]2(C)[C@H]3C(=O)[C@@H](OC(C)=O)C[C@@H](C(=O)OC)[C@]3(C)CC[C@H]2C(=O)O1")
8.13
